B1: Retinoic acid receptor beta, residues 85 to 161; numbered along this chain, P10826 (parent)
chain: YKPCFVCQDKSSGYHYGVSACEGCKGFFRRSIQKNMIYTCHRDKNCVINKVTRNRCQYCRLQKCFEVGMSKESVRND

Variants of: B1
Test: abundance fitness (aPCA) (normalised: wild type 0, dead -1); higher = more abundant; growth selection in yeast, the domain comes from the species named
Conditions: Homo sapiens
# abundance fitness binned as LOW = under -0.4, MID = from -0.4 up to -0.002, HIGH = -0.002 and over

Which class is correct for the following variant? YKPCFVCQDKSSGYHYGVSACEGCKGFFRRSIQKNMIYTCHRCKNCVINKVTRNRCQYCRLQKCFEVGMSKESVRND [D43C]
LOW

Which class is correct for the following variant? YKPCFVCQDKSSGYHYGVSACEGCKGFFRRSIQKNMIYTCHRDKNCVINKVTRNRCQYCPLQKCFEVGMSKESVRND [R60P]
LOW

Which class is correct for the following variant? YKPCFVCIDKSSGYHYGVSACEGCKGFFRRSIQKNMIYTCHRDKNCVINKVTRNRCQYCRLQKCFEVGMSKESVRND [Q8I]
LOW

Which class is correct for the following variant? YKPCFECQDKSSGYHYGVSACEGCKGFFRRSIQKNMIYTCHRDKNCVINKVTRNRCQYCRLQKCFEVGMSKESVRND [V6E]
LOW

Which class is correct for the following variant? YKPCFVCCDKSSGYHYGVSACEGCKGFFRRSIQKNMIYTCHRDKNCVINKVTRNRCQYCRLQKCFEVGMSKESVRND [Q8C]
MID

Which class is correct for the following variant? YKPCFVCQDKSSGYHYGVSACEGCKGFFRRSIQKNMIYTCHREKNCVINKVTRNRCQYCRLQKCFEVGMSKESVRND [D43E]
HIGH

Which class is correct for the following variant? YKPCFVCQDKSSGYHYGVSACEGCKGFFRRSIPKNMIYTCHRDKNCVINKVTRNRCQYCRLQKCFEVGMSKESVRND [Q33P]
LOW

Which class is correct for the following variant? YKPCFVCQDKSSGYHYGVSACEGCKGFFRRSIQKNMIYTCHRDSNCVINKVTRNRCQYCRLQKCFEVGMSKESVRND [K44S]
HIGH

Which class is correct for the following variant? YKCCFVCQDKSSGYHYGVSACEGCKGFFRRSIQKNMIYTCHRDKNCVINKVTRNRCQYCRLQKCFEVGMSKESVRND [P3C]
MID

Which class is correct for the following variant? YKPCFVCQDKSSGYHYGVSACEGCKGFFRRSIQKNMIYTKHRDKNCVINKVTRNRCQYCRLQKCFEVGMSKESVRND [C40K]
LOW

Which class is correct for the following variant? YKPCFVCGDKSSGYHYGVSACEGCKGFFRRSIQKNMIYTCHRDKNCVINKVTRNRCQYCRLQKCFEVGMSKESVRND [Q8G]
HIGH

Which class is correct for the following variant? YKPCFVCQDKSSGYHYGVSACEGCKGFFHRSIQKNMIYTCHRDKNCVINKVTRNRCQYCRLQKCFEVGMSKESVRND [R29H]
HIGH

Which class is correct for the following variant? YDPCFVCQDKSSGYHYGVSACEGCKGFFRRSIQKNMIYTCHRDKNCVINKVTRNRCQYCRLQKCFEVGMSKESVRND [K2D]
HIGH

Which class is correct for the following variant? YKPCFVCQDKSSGYHYGVSACTGCKGFFRRSIQKNMIYTCHRDKNCVINKVTRNRCQYCRLQKCFEVGMSKESVRND [E22T]
MID

Which class is correct for the following variant? RKPCFVCQDKSSGYHYGVSACEGCKGFFRRSIQKNMIYTCHRDKNCVINKVTRNRCQYCRLQKCFEVGMSKESVRND [Y1R]
MID

Which class is correct for the following variant? YKPCFVCQDKSSGYHYGVSACEGCKGFFRRSIQKNMIYTCHRDKNCVINKVTRNWCQYCRLQKCFEVGMSKESVRND [R55W]
HIGH

Which class is correct for the following variant? YKPCFVCQDKSSGYHYGVSACEGCKGFFRRSIQKNMIYTCHRQKNCVINKVTRNRCQYCRLQKCFEVGMSKESVRND [D43Q]
MID

Which class is correct for the following variant? YKPCFVCQDKSSGYHYGVSACEGCKGFFRRSIQKNMIYTCHRDKNCVINKVTRNRCQYCDLQKCFEVGMSKESVRND [R60D]
LOW

Which class is correct for the following variant? YKPCFVCQDKSSGYHYGVSACEGCKGFFRRSIQKNMIYTCHRDKNCVINKVTRNRCQNCRLQKCFEVGMSKESVRND [Y58N]
LOW

Which class is correct for the following variant? YKPCFVCQDKSSGGHYGVSACEGCKGFFRRSIQKNMIYTCHRDKNCVINKVTRNRCQYCRLQKCFEVGMSKESVRND [Y14G]
MID

All values here come from the Human Domainome abundance scans (Beltran et al. 2025).
